Experiment: Pharmacokinetics of Compound 4 in mice (IV and PO)
Assay type: in vivo, BALB/c nude female mice
Details: female, BALB/c nude, mouse, plasma, intravenous, 2 mg/kg, 2 mg/kg IV, 4 hr, G2; read-out: Plasma concentration G2
reported.metric: concentration at 4 hr (ng/mL)
The answer is to be given in ng/mL; state only the numeric part.

In plain terms, `NCCCOc1cc2ccccc2cc1C(=O)NCCCOc1cc2ccccc2cc1C(=O)Nc1ccc(Cl)cc1O` has a documented concentration at 4 hr of 71

###

Assay: Pharmacokinetics of Compound 4 in mice (IV and PO)
Assay type: in vivo, BALB/c nude female mice
Conditions: female, BALB/c nude, mouse, plasma, oral, 20 mg/kg, 20 mg/kg PO, 24 hr, G5; read-out: Plasma concentration G5
Procedure: The pharmacokinetics of Compound 4 was assessed in BALB/c nude female mice. Doses were 2 mg/kg administered intravenously (IV) and 20 mg/kg administered orally (PO). The intravenous formulation was administered in 1% N-Methyl-2-pyrrolidone (NMP) in water and was a clear solution. The per os solution was in 1.3% NMP+5% Tween-20® in a clear solution.
reported.metric: concentration at 24 hr (ng/mL)
The answer is to be given in ng/mL; state only the numeric part.

In plain terms, `NCCCOc1cc2ccccc2cc1C(=O)NCCCOc1cc2ccccc2cc1C(=O)Nc1ccc(Cl)cc1O` has a documented concentration at 24 hr of 12.9

Origin of the recorded values: patent US9073820B2
